# maps each entry to its Kd
# Assayed target: biotinylated human DLL3 protein expressed as a human IgG1 fusion protein (human) (UniProt Q9NYJ7)
# Sequence (Q9NYJ7 27-492): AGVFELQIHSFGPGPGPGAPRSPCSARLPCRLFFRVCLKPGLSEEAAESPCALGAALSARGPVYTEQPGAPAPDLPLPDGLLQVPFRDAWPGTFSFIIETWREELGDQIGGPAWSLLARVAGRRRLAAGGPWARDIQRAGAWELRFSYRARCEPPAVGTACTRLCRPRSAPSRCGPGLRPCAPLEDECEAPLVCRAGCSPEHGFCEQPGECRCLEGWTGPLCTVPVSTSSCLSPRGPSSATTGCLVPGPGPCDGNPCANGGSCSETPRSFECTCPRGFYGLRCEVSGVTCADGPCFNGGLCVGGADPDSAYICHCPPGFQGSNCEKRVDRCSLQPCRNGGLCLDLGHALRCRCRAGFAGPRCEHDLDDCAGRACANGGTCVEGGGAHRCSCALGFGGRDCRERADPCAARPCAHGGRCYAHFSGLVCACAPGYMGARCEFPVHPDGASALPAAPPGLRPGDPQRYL
# Assay comment: Octet, biotinylated human DLL3-IgG1 fusion on streptavidin tips, single 50 nM, conditioned medium (relative KD)
Response body: numeric value in nM, unit text excluded.

anti-DLL3 trispecific protein, DLL3 binder 4H03 (protein, part only; not given: CD3 binder and albumin binder, part only) chain, part: EVQLVESGGGLVQPGGSLTLSCAASGSRVSFLSMAWYRQAPGKKRELVAGISADGSTSYIDSVKGRFTISRDNAKNSVYLQMNSLRAEDTAVYYCYAYRWTTRYTYWGQGTLVTVSSGGGGSGGGSGGGGSGGGSHHHHHH | 13

Below: the item to evaluate.
Name the reported Kd value associated with the binder anti-DLL3 trispecific protein, DLL3 binder 4E06 (protein, part only; not given: anti-CD3 fragment and anti-albumin domain, part only) chain, part: EVQLVESGGGLVQPGGSLTLSCAASGTSVSFLSMAWYRQAPGKKRELVAGISADGSTDYIRSVKGRFTISRDNAKNSVYLQMNSLRAEDTAVYYCYAYRWTTRLTYWGQGTLVTVSSGGGGSGGGSGGGGSGGGSHHHHHH 10

Where do the numbers come from? From patent US20200095340A1.
